Recorded measurements of Ki, one per entry
biological target: human GABAA α5β2γ1 receptor (Homo sapiens (Human), UniProt P31644+Q8N1C3); assay: Radioligand binding assay, competition for [3H]RO7239181, γ1-containing GABAA subtype α5β2γ1
observable: Ki (nM)

[[record]]
compoundstring = "Cc1cn2c(nc1=O)[C@H](C)N=C(c1c(F)cccc1F)c1c-2ccc(Cl)c1Cl"
observable = "Ki"
measuredvalue = 1.4

[[record]]
compoundstring = "O=c1nc2n(cc1Br)-c1ccc(Cl)c(Cl)c1C(c1c(F)cccc1F)=NC2"
observable = "Ki"
measuredvalue = 1.4

[[record]]
compoundstring = "O=c1ccn2c(n1)CN=C(c1c(F)cccc1F)c1c-2ccc(Br)c1Cl"
observable = "Ki"
measuredvalue = 0.7

[[record]]
compoundstring = "CCc1cn2c(nc1=O)[C@H](C)N=C(c1c(F)cccc1F)c1c-2ccc(C(F)(F)F)c1Cl"
observable = "Ki"
measuredvalue = 4.1


* * *

biological target: human GABAA α1β3γ2 receptor (Homo sapiens (Human), UniProt P14867+P18507); assay: Radioligand binding assay, competition for [3H]Flumazenil, γ2-containing GABAA subtype α1β3γ2; details: HEK293F cell membranes, [3H]Flumazenil 1 nM, mean of two determinations; read-out: Ki h-GABAA α1β3γ2
# if measured Ki < 9 µM: criterion met  # else: criterion not met

[[record]]
compoundstring = "CCOCCc1cn2c(nc1=O)CN=C(c1c(F)cccc1F)c1c-2ccc(Cl)c1Cl"
qualitativelabel = "criterion met"

[[record]]
compoundstring = "CCO/C=C/c1cn2c(nc1=O)[C@H](C)N=C(c1c(F)cccc1F)c1c-2ccc(Cl)c1Cl"
qualitativelabel = "criterion met"

[[record]]
compoundstring = "C[C@@H]1N=C(c2c(F)cccc2F)c2c(ccc(C(F)(F)F)c2Cl)-n2cc(C(=O)NC3CC3)c(=O)nc21"
qualitativelabel = "criterion not met"

[[record]]
compoundstring = "CCO/C=C/c1cn2c(nc1=O)[C@H](C)N=C(c1c(F)cccc1F)c1c-2ccc(C(F)(F)F)c1Cl"
qualitativelabel = "criterion met"

[[record]]
compoundstring = "CCO/C=C/c1cn2c(nc1=O)CN=C(c1c(F)cccc1F)c1c-2ccc(C(F)(F)F)c1Cl"
qualitativelabel = "criterion not met"


* * *

target: h-GABA-A α2β2γ1 (Homo sapiens (Human), UniProt P47869+Q8N1C3); assay: Two-electrode voltage clamp electrophysiology in Xenopus oocytes expressing GABAA receptors, modulation of GABA EC20 current; format: cell-based; conditions: % modulation of GABA EC20 = 100*(Fold increase−1), compound at 30-fold Ki α2β2γ1
observable: Efficacy (GABA) %

[[record]]
compoundstring = "C[C@@H]1N=C(c2c(F)cccc2F)c2c(ccc(Cl)c2Cl)-n2ccc(=O)nc21"
targetentity = "h-GABA-A α2β2γ1 (Homo sapiens (Human), UniProt P47869+Q8N1C3)"
measuredvalue = "105%"

[[record]]
compoundstring = "Cc1cn2c(nc1=O)[C@H](C)N=C(c1c(F)cccc1F)c1c-2ccc(Cl)c1Cl"
targetentity = "h-GABA-A α2β2γ1 (Homo sapiens (Human), UniProt P47869+Q8N1C3)"
measuredvalue = "53%"

[[record]]
compoundstring = "CCO/C=C/c1cn2c(nc1=O)[C@H](C)N=C(c1c(F)cccc1F)c1c-2ccc(Cl)c1Cl"
targetentity = "h-GABA-A α2β2γ1 (Homo sapiens (Human), UniProt P47869+Q8N1C3)"
measuredvalue = "104%"

[[record]]
compoundstring = "O=c1ccn2c(n1)CN=C(c1ccccc1F)c1c-2ccc(Cl)c1Cl"
targetentity = "h-GABA-A α2β2γ1 (Homo sapiens (Human), UniProt P47869+Q8N1C3)"
measuredvalue = "92%"

[[record]]
compoundstring = "C[C@@H]1N=C(c2c(F)cccc2F)c2c(ccc(Br)c2Cl)-n2ccc(=O)nc21"
targetentity = "h-GABA-A α2β2γ1 (Homo sapiens (Human), UniProt P47869+Q8N1C3)"
measuredvalue = "70%"

[[record]]
compoundstring = "O=c1ccn2c(n1)CN=C(c1ncccc1F)c1c-2ccc(Cl)c1Cl"
targetentity = "h-GABA-A α2β2γ1 (Homo sapiens (Human), UniProt P47869+Q8N1C3)"
measuredvalue = "192%"

[[record]]
compoundstring = "C[C@@H]1N=C(c2c(F)cccc2F)c2c(ccc(Cl)c2Br)-n2cc(Br)c(=O)nc21"
targetentity = "h-GABA-A α2β2γ1 (Homo sapiens (Human), UniProt P47869+Q8N1C3)"
measuredvalue = "107%"

[[record]]
compoundstring = "O=c1nc2n(cc1Br)-c1ccc(Br)c(Cl)c1C(c1c(F)cccc1F)=NC2"
targetentity = "h-GABA-A α2β2γ1 (Homo sapiens (Human), UniProt P47869+Q8N1C3)"
measuredvalue = "69%"

[[record]]
compoundstring = "C[C@@H]1N=C(c2c(F)cccc2F)c2c(ccc(C(F)(F)F)c2Cl)-n2cc(C(=O)NC3CC3)c(=O)nc21"
targetentity = "h-GABA-A α2β2γ1 (Homo sapiens (Human), UniProt P47869+Q8N1C3)"
measuredvalue = "35%"

[[record]]
compoundstring = "CCOCCc1cn2c(nc1=O)CN=C(c1c(F)cccc1F)c1c-2ccc(C(F)(F)F)c1Cl"
targetentity = "h-GABA-A α2β2γ1 (Homo sapiens (Human), UniProt P47869+Q8N1C3)"
measuredvalue = "113%"

[[record]]
compoundstring = "C[C@@H]1N=C(c2c(F)cccc2F)c2c(ccc(Cl)c2Br)-n2ccc(=O)nc21"
targetentity = "h-GABA-A α2β2γ1 (Homo sapiens (Human), UniProt P47869+Q8N1C3)"
measuredvalue = "121%"

[[record]]
compoundstring = "CCOCCc1cn2c(nc1=O)[C@H](C)N=C(c1c(F)cccc1F)c1c-2ccc(C(F)(F)F)c1Cl"
targetentity = "h-GABA-A α2β2γ1 (Homo sapiens (Human), UniProt P47869+Q8N1C3)"
measuredvalue = "113%"

[[record]]
compoundstring = "O=c1ccn2c(n1)CN=C(c1c(F)cccc1F)c1c-2ccc(Br)c1Cl"
targetentity = "h-GABA-A α2β2γ1 (Homo sapiens (Human), UniProt P47869+Q8N1C3)"
measuredvalue = "65%"

[[record]]
compoundstring = "CCc1cn2c(nc1=O)[C@H](C)N=C(c1c(F)cccc1F)c1c-2ccc(C(F)(F)F)c1Cl"
targetentity = "h-GABA-A α2β2γ1 (Homo sapiens (Human), UniProt P47869+Q8N1C3)"
measuredvalue = "70%"

[[record]]
compoundstring = "C[C@@H]1N=C(c2c(F)cccc2F)c2c(ccc(C(F)(F)F)c2Cl)-n2ccc(=O)nc21"
targetentity = "h-GABA-A α2β2γ1 (Homo sapiens (Human), UniProt P47869+Q8N1C3)"
measuredvalue = "164%"

[[record]]
compoundstring = "CCO/C=C/c1cn2c(nc1=O)[C@H](C)N=C(c1c(F)cccc1F)c1c-2ccc(C(F)(F)F)c1Cl"
targetentity = "h-GABA-A α2β2γ1 (Homo sapiens (Human), UniProt P47869+Q8N1C3)"
measuredvalue = "89%"

[[record]]
compoundstring = "Cc1cn2c(nc1=O)[C@H](C)N=C(c1c(F)cccc1F)c1c-2ccc(C(F)(F)F)c1Cl"
targetentity = "h-GABA-A α2β2γ1 (Homo sapiens (Human), UniProt P47869+Q8N1C3)"
measuredvalue = "99%"

[[record]]
compoundstring = "CCOCCc1cn2c(nc1=O)CN=C(c1c(F)cccc1F)c1c-2ccc(Cl)c1Cl"
targetentity = "h-GABA-A α2β2γ1 (Homo sapiens (Human), UniProt P47869+Q8N1C3)"
measuredvalue = "120%"

[[record]]
compoundstring = "CCO/C=C/c1cn2c(nc1=O)CN=C(c1c(F)cccc1F)c1c-2ccc(C(F)(F)F)c1Cl"
targetentity = "h-GABA-A α2β2γ1 (Homo sapiens (Human), UniProt P47869+Q8N1C3)"
measuredvalue = "81%"

[[record]]
compoundstring = "O=c1ccn2c(n1)CN=C(c1c(F)cccc1F)c1c-2ccc(Cl)c1Br"
targetentity = "h-GABA-A α2β2γ1 (Homo sapiens (Human), UniProt P47869+Q8N1C3)"
measuredvalue = "79%"

[[record]]
compoundstring = "CNC(=O)c1cn2c(nc1=O)[C@H](C)N=C(c1c(F)cccc1F)c1c-2ccc(C(F)(F)F)c1Cl"
targetentity = "h-GABA-A α2β2γ1 (Homo sapiens (Human), UniProt P47869+Q8N1C3)"
measuredvalue = "113%"

[[record]]
compoundstring = "O=c1ccn2c(n1)CN=C(c1c(F)cccc1F)c1c-2ccc(Cl)c1Cl"
targetentity = "h-GABA-A α2β2γ1 (Homo sapiens (Human), UniProt P47869+Q8N1C3)"
measuredvalue = "88%"

[[record]]
compoundstring = "O=c1nc2n(cc1Br)-c1ccc(Cl)c(Cl)c1C(c1c(F)cccc1F)=NC2"
targetentity = "h-GABA-A α2β2γ1 (Homo sapiens (Human), UniProt P47869+Q8N1C3)"
measuredvalue = "78%"

[[record]]
compoundstring = "CCc1cn2c(nc1=O)[C@H](C)N=C(c1c(F)cccc1F)c1c-2ccc(Cl)c1Cl"
targetentity = "h-GABA-A α2β2γ1 (Homo sapiens (Human), UniProt P47869+Q8N1C3)"
measuredvalue = "66%"

